test_protocol: folding enthalpy; higher = less favourable; fluorescence melt of hairpins on a sequencing array, two-state fit
condition_notes: sodium 0.088 M
property_name: folding enthalpy

* GATCCTAAGCAGGATC ((((((....)))))) | -29.9 kcal/mol
* GGGCTTGGAAACGAGCTC (.(((.(....).))).) | -29.7 kcal/mol
* GCCTCCGAAAGGAAAGGC ((((((....)))..))) | -29.6 kcal/mol

----------
test_protocol: melting temperature; fluorescence melt of hairpins on a sequencing array, two-state fit, raised by 9.35 °C to match UV melts
condition_notes: sodium 0.088 M
property_name: Tm (°C)

- GATCAAAGAGTTGATC ((((((....)))))): 37.2
- GACTCTGGAAACAGAGCC (.(((((....))))).): 43
- GCAACTGGAAACAATTGC ((((.((....)).)))): 34.5
- GATCGAGTCGTCGATC ((((((....)))))): 54.9
- GCCCTACGAAAGTAGGC (((.(((....)))))): 56.8
- GAGAGGGGAAACCCTCTC (((((((....))))))): 63.5
- GATCCTCCGCAGGATC ((((((....)))))): 44.6
- GGATGTGGAAACACATCC (((((((....))))))): 64.5
- GAAATTGAAAAATTTC ((((((....)))))): 40.3
- GATAAAGGAAACTTTATC (((((((....))))))): 44.4
- GGTACCCGAAAGGGCACC (((.(((....))).))): 55.6
- GATCTGGAATCAGATC ((((((....)))))): 54.3
- GGGCCTTCGAAAGAACCC (((..(((....)))))): 30.4
- GGGTAGGGAAACCTACTC (.(((((....))))).): 44.6
- GTTCGCGAAAGCGTTAAC ((((((....)))..))): 27.8
- GCGAAACGAAAGTTCCGC (((.(((....))).))): 52.5
- GGCCTCGAAAGAGCGGCC ((((((....)))..))): 51.8
- GGCGGTGGAAACACCACC ((.((((....)))).)): 53
- GGCCCCTCGAAAGAGGCC (((..(((....)))))): 43.8
- GCTTAGCGAAAGCTAGC (((.(((....)))))): 53.8
- GTTGGACGAAAGTCGAAC (((.(((....))).))): 49.1
- GTTTTACCGAAAGGTAAC (((..(((....)))))): 33.6
- GCAGACCGAAAGGTGTGC (((.(((....))).))): 63
- GCGACCGAAAGGTGTCGC ((((((....)))..))): 59
- GATCCACCGTTGGATC ((((((....)))))): 49.7
- GCTTCCCGAAAGGGTAGC (((.(((....))).))): 56.4
- CCTCTGAAAAGAGG (((((....))))): 48.7
- GATCAGCAGCCTGATC ((((((....)))))): 48.7
- GATCCCGGGGGGGATC ((((((....)))))): 62
- GATCCAGCGTGGATC ((((((...)))))): 50.5
- GATCCTCGGGAGGATC ((((((....)))))): 56.1

All values here come from the array DNA melting data of Ke et al. (doi:10.1101/2024.01.08.574731).
